# maps each entry to its GI50
Tested on: IGROV-1
assay overview: NCI tumour cell line growth inhibition, 48 h
Activity calls are given as the source filed them. No stated cut-off is given here; in the data, active = GI50 up to about 1.1 µM and inactive = higher.

[[record]]
compound = "O=C(/C=C\\c1ccccc1-c1ccccc1)c1ccccc1"
measured_result = "> 100 µM (inactive)"


Q) Determine its reported GI50: CCCCC[C@H]1CCCCCCCCCC(=O)OC2C(O[C@@H]3OC(C)[C@H](OC(=O)[C@@H](C)CC)C(O[C@@H]4OC(C)[C@H](O)C(O)[C@@H]4O)[C@@H]3OC(=O)[C@H](C)CC)[C@H](OC3C(O)[C@@H](O)C(C)O[C@H]3O1)OC(CO)[C@H]2O (stereo not given in full)
A) 17.1 µM (inactive)

Q) Supply recorded GI50 for NS(=O)(=O)c1ccc(-n2c(-c3cccs3)nc3ccc(I)cc3c2=O)cc1 here.
A) 21.7 µM (inactive)

Q) # return recorded GI50 for input O=[N+]([O-])c1ccc(-c2cn(-c3ccc(Cl)cc3)cn2)cc1
A) 41.6 µM (inactive)

Q) Give the reported GI50 for this compound. CC(C)c1ccc2nc3ccc(C(=O)NCCN4CCN(c5ccccc5)CC4)cn3c(=O)c2c1
A) > 100 µM (inactive)

Q) Note GI50 for the compound shown: Oc1nnc2c(-c3ccccc3)n[nH]c2n1
A) 94.4 µM (inactive)

Q) Tell us which GI50 value is on record for CCOC(=O)/C=C/c1nc(C#N)c(N)o1
A) > 100 µM (inactive)

Q) Fill in GI50 for record Cc1cccc(N(CC(=O)O)S(=O)(=O)c2ccccc2)c1
A) > 100 µM (inactive)

Q) Determine its reported GI50: CC1=C2C=CC(=O)C[C@@]2(C)CCC1
A) > 100 µM (inactive)

Q) Please report GI50 for the following compound: CCOc1ccc(NC(=O)C(=O)CC(=O)c2c[n+]([O-])c3cc(C)c(C)cc3[n+]2[O-])cc1
A) > 100 µM (inactive)
